test.method.notes: Antiproliferative activity against human HCT116 cells after 72 hrs by MTT assay
Type: functional, cell-based
condition.info: HCT-116, 72 h
Lab note - cut at 1 µM for IC50: class 1 if strictly below, class 0 if not.

Please state whether IC50 is below 1 µM for NC(=O)c1cc(-c2nc(N3CCOCC3)nc(N3CCOCC3)n2)cc(C(F)(F)F)c1
class 0

Consider CN(c1nc(-c2cc(C(N)=O)cc(C(F)(F)F)c2)nc(N2CCOCC2)n1)C1CCN(S(C)(=O)=O)CC1 . Does its IC50 lie strictly below 1 µM?
class 0

Quick check: IC50 of NC(=O)c1cc(-c2nc(N3CCOCC3)nc(N3CCOCC3)n2)ccc1OCc1ccc(F)cc1 under 1 µM?
class 0
